These data points were gathered from paper PMC10179475.

Target: ligand-binding domain (LBD) of NR4A1 (Homo sapiens, UniProt P22736)
Sequence (P22736 360-595 limits assumed): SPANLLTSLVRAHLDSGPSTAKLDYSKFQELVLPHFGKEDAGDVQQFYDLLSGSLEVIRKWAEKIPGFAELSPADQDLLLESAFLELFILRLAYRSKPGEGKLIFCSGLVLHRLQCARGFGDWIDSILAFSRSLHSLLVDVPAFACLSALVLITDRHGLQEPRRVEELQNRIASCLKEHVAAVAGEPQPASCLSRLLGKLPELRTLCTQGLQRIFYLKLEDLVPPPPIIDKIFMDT
Assay: Direct-binding fluorescence assay (quenching of NR4A1 tryptophan fluorescence)
Settings: fluorescence (Trp quenching) assay; Table 1 head prints no unit, µM from text and Figure 5; read-out: KD, direct binding assay
Criterion: Kd strictly under 9 µM. Met: true (1). Not met: false (0).

These recorded examples may help you get a feel for the data.
O=c1c(O)c(-c2ccc(O)c(O)c2)oc2cc(O)cc(O)c12: true (1)
O=c1cc(-c2cccc(O)c2)oc2cc(O)ccc12 [7,3′-Dihydroxyflavone]: false (0)
O=c1cc(-c2ccccc2)oc2c(O)c(O)ccc12 [7,8-Dihydroxyflavone]: false (0)

Note: attention shifts to another entry.
Ask | Is Kd strictly under 9 µM for the entry O=c1cc(-c2ccccc2)oc2cc(O)ccc12 [7-Hydroxyflavone] ?
Reply | true (1)
